Quick list: IC50 per entry.
TARGET: Glucagon receptor (Homo sapiens, UniProt P47871)
Sequence (P47871 whole entry): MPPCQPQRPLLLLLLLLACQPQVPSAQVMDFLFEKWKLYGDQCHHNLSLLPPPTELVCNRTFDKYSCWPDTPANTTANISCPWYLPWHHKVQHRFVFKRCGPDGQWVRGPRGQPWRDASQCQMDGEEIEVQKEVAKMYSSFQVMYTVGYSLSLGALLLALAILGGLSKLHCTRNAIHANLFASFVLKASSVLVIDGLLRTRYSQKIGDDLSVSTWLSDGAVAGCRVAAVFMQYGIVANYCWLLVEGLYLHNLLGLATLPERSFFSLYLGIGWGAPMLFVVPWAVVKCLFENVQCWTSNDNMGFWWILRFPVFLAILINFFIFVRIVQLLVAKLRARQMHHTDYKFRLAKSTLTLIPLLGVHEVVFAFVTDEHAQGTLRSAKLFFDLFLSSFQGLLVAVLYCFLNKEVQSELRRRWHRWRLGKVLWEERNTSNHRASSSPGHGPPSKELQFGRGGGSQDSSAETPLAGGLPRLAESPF
TEST_SUMMARY: Inhibitory concentration against binding to the human glucagon receptor (hGR)

MOLECULE	TARGET	RELATION_SIGN	IC50 / µM
CCCCCc1c(C(C)C)nc(C(C)C)c([C@@H](C)O)c1-c1ccc(F)cc1 (single isomer, unassigned)	Glucagon receptor (Homo sapiens, UniProt P47871)	=	0.15
CCCCCc1c(C(C)C)nc(C(C)C)c(CO)c1-c1ccccc1	Glucagon receptor (Homo sapiens, UniProt P47871)	=	1.4
CCCCCc1c(C(C)C)nc(C(C)C)c(CO)c1-c1ccc(F)cc1	Glucagon receptor (Homo sapiens, UniProt P47871)	=	0.7
CCCCCc1c(C)nc(C)c(CO)c1-c1ccccc1	Glucagon receptor (Homo sapiens, UniProt P47871)	>	20
CC(C)c1nc(C(C)C)c(CO)c(-c2ccc(F)cc2)c1CO	Glucagon receptor (Homo sapiens, UniProt P47871)	>	20
COCc1c(C(C)C)nc(C(C)C)c(CO)c1-c1ccc(F)cc1	Glucagon receptor (Homo sapiens, UniProt P47871)	=	9
CCCCCc1c(CC)nc(CC)c(CO)c1-c1ccccc1	Glucagon receptor (Homo sapiens, UniProt P47871)	=	20
C=Cc1c(C(C)C)nc(C(C)C)c(CO)c1-c1ccc(F)cc1	Glucagon receptor (Homo sapiens, UniProt P47871)	=	6
CC(C)=Cc1c(C(C)C)nc(C(C)C)c(CO)c1-c1ccc(F)cc1	Glucagon receptor (Homo sapiens, UniProt P47871)	=	7
CCc1c(C)nc(C)c(CO)c1-c1ccccc1	Glucagon receptor (Homo sapiens, UniProt P47871)	>	20
CCc1c(C(C)C)nc(C(C)C)c(CO)c1-c1ccccc1	Glucagon receptor (Homo sapiens, UniProt P47871)	=	1.8
